- System: BT-474
- testDescription: drug sensitivity score (DSS), CellTiter-Blue viability (DSS (AUC-based score)); higher = stronger viability inhibition; extreme values may be limits of the assay
- testSettings: incubation time: 72 h
Quick reference for drug sensitivity score among some compounds

// solved cases for drug sensitivity score follow
Reported drug sensitivity score for O=C(O)C1(C(=O)O)CCC1.[NH2-].[NH2-].[Pt+2] [Carboplatin] was 0

Lab book: drug sensitivity score of N#Cc1ccc(C(c2ccc(C#N)cc2)n2cncn2)cc1 [Letrozole] noted as 0

Query Nc1nc2[nH]cc(CCc3ccc(C(=O)N[C@@H](CCC(=O)O)C(=O)O)cc3)c2c(=O)[nH]1 [Pemetrexed] yields drug sensitivity score of 0

***
Record summary for CC(=O)Nc1cccc(-n2c(=O)n(C3CC3)c(=O)c3c(Nc4ccc(I)cc4F)n(C)c(=O)c(C)c32)c1 : reported drug sensitivity score = 0

Record CCc1cncnc1N1CCN(Cc2nc3ccc(C(F)(F)F)cc3[nH]2)CC1 , field drug sensitivity score: 0

The measured drug sensitivity score associated with CC[C@@H]1C(=O)N(C)c2cnc(Nc3ccc(C(=O)NC4CCN(C)CC4)cc3OC)nc2N1C1CCCC1 [BI 2536] reads 0

drug sensitivity score in this record for Nc1ccccc1NC(=O)c1ccc(CNC(=O)OCc2cccnc2)cc1 [Entinostat] : 3.64

drug sensitivity score in this record for Cc1ccc(-c2cc(C(F)(F)F)nn2-c2ccc(S(N)(=O)=O)cc2)cc1 [Celecoxib] : 0

The measured drug sensitivity score associated with O=C(Cc1ccc(-c2ccc(OCCN3CCOCC3)cc2)cn1)NCc1ccccc1 [KX2-391] reads 11.2

Documented drug sensitivity score of CC1=C(/C=C/C(C)=C/C=C/C(C)=C/C(=O)O)C(C)(C)CCC1 [Tretinoin] : 0

* * *

- Test system: HDQ-P1
- testDescription: drug sensitivity score (DSS), CellTox Green (DSS (AUC-based score)); higher = stronger drug effect (viability inhibition or cytotoxicity); extreme values may be limits of the assay
- testSettings: incubation time: 72 h
reportedMetric: drug sensitivity score
Just the number, please, no unit attached.

Below are worked cases with known answers.
Lab note: N#Cc1ccc(C(c2ccc(C#N)cc2)n2cncn2)cc1 gave drug sensitivity score of 0

# drug sensitivity score of CCc1cncnc1N1CCN(Cc2nc3ccc(C(F)(F)F)cc3[nH]2)CC1 = 0

***
Sample O=C(O)C1(C(=O)O)CCC1.[NH2-].[NH2-].[Pt+2] ; drug sensitivity score observed: 0

The compound identified as CNC(=O)c1cc(Oc2ccc(NC(=O)Nc3cc(C(C)(C)C)nn3-c3ccc4ncccc4c3)c(F)c2)ccn1 registered its drug sensitivity score at 4.01

Noted for COc1cc2c(Oc3ccc4[nH]c(C)cc4c3F)ncnc2cc1OCCCN1CCCC1 : its drug sensitivity score reads 0

Recorded drug sensitivity score (compound O=C(Cc1ccc(-c2ccc(OCCN3CCOCC3)cc2)cn1)NCc1ccccc1 ): 4.28

Consider COc1cc([C@@H]2c3cc4c(cc3[C@@H](O[C@@H]3O[C@@H]5CO[C@@H](c6cccs6)O[C@H]5[C@H](O)[C@H]3O)[C@H]3COC(=O)[C@H]23)OCO4)cc(OC)c1O [Teniposide] . Its measured drug sensitivity score is 7.08

Form field drug sensitivity score, entry C=CCc1cccc(/C=N/NC(=O)CN2CCN(Cc3ccccc3)CC2)c1O : 0

* * *

- Test system: MFM-223
- testDescription: normalised response (% of control), CellTiter-Glo; higher = more viable cells (100 = DMSO, 0 = benzethonium chloride kill control)
- testSettings: incubation time: 72 h
reportedMetric: normalised response (%)
# unit: % | format: bare number

normalised response recorded for this molecule, Cc1cnc(NC(=O)Nc2cc(Br)c(C)cc2OC[C@@H]2CNCCO2)cn1 [Rabusertib] (1 nM) , is 113

// CC1=C(/C=C/C(C)=C/C=C/C(C)=C/C(=O)O)C(C)(C)CCC1 [Tretinoin] (10 nM) : normalised response value = 103

Reported normalised response of CC(=O)Nc1cccc(-n2c(=O)n(C3CC3)c(=O)c3c(Nc4ccc(I)cc4F)n(C)c(=O)c(C)c32)c1 [Trametinib] (25 nM) : 94.6

More entries:
Entry O=C(Cc1ccc(-c2ccc(OCCN3CCOCC3)cc2)cn1)NCc1ccccc1 [KX2-391] (1000 nM) , normalised response reported as 44.9

get_value(item= C=CCc1cccc(/C=N/NC(=O)CN2CCN(Cc3ccccc3)CC2)c1O [PAC-1] (1 nM) , readout=normalised response) returns 102

Entry under test: O=C(Cc1ccc(-c2ccc(OCCN3CCOCC3)cc2)cn1)NCc1ccccc1 [KX2-391] (1 nM) . Its normalised response was 106

The molecule CCc1cncnc1N1CCN(Cc2nc3ccc(C(F)(F)F)cc3[nH]2)CC1 (1000 nM) showed normalised response equal to 106
